# Tested on: K562;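 further: after 48 h exposure read by CellTiter-Glo luminescence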
# assay_explanation: cell viability relative to vehicle control; higher = less cytotoxic
# experimental_parameters: 10 µM; SRSF2 genotype: SRSF2 wt/wt
Counter-ions that a name gives are not always drawn.
# Lookup of reported cell viability keyed by entry
# output: bare number, implied unit %

{"columns": ["compound", "study_target", "cell viability / %"],
 "data": [
  ["CN(C)C(=O)C(CCN1CCC(O)(c2ccc(Cl)cc2)CC1)(c1ccccc1)c1ccccc1 [Loperamide hydrochloride]", "K562", 49.4],
  ["CCN1CCCC1CNC(=O)c1cc(S(=O)(=O)CC)c(N)cc1OC (centres undefined) [Amisulpride]", "K562", 105],
  ["Cc1ccc(CN(CC(O)COc2cccc3[nH]ccc23)C(C)(C)C)cc1 (centres undefined)", "K562", 66.8]
]}

[ask] # query: cell viability of entry C[C@H](NC(=O)CCc1nc2ccccc2c(=O)[nH]1)c1ccccc1
[reply] 108

[ask] Look up cell viability for this compound: CC1(C)CC[C@]2(C(=O)O)[C@H](O)C[C@]3(C)C(=CC[C@@H]4[C@@]5(C)CC[C@H](O)[C@@](C)(C=O)[C@@H]5CC[C@]43C)[C@@H]2C1
[reply] 82.9

[ask] Requested read-out: cell viability. Entry: CCCCNc1ncc2c(-c3ccc(CN4CCN(C)CC4)cc3)cn([C@H]3CC[C@H](O)CC3)c2n1
[reply] 6.13

[ask] Sample CCC(CC)n1ccc2c(C(=O)NCc3c(C)cc(C)[nH]c3=O)cc(C#N)cc21 — what was its cell viability?
[reply] 95.5

[ask] So what's the measured cell viability for this one? CC(NC(=O)Cc1cc(F)cc(F)c1)C(=O)NC1C(=O)N(C)c2ccccc2-c2ccccc21 (centres undefined)
[reply] 108

[ask] Endpoint output: cell viability of CCc1cc(Nc2nc(-c3ccc(-n4cnc(C)c4)c(F)c3)cs2)c(C)cc1C . Value?
[reply] 91.5

[ask] Give its cell viability value. Item: CCN(CC)Cc1ccc2cc(COC(=O)Nc3ccc(C(=O)NO)cc3)ccc2c1
[reply] 1.85
